The measured values listed here are drawn from patent US20210093531A1.

Tested on: trained panelists
Assay: time-intensity analysis of cooling, mouthwash application
Type: in vivo
Details: after expectoration for 15 minutes (Table 9b)
Marks after values point to notes of the source that are not given here.
PROPERTY MEASURED: Tmax

CC(C)[C@@H]1CC[C@@H](C)C[C@H]1OC(=O)CN(C)C(C)C	32.73^a

Entry "CC(C)[C@@H]1CC[C@@H](C)C[C@H]1OC(=O)CNC1CC1" , tested on trained panelists, has a reported Tmax of 32.50^a

Entry "CCCCN(CCCC)CC(=O)O[C@@H]1C[C@H](C)CC[C@H]1C(C)C" , tested on trained panelists, has a reported Tmax of 30.00^a

Entry CC1CCC(C(C)C)C(O)C1 (stereo not shown) , tested on trained panelists, has a reported Tmax of 33.53^a
